- assay.overview: Selectivity index, ratio of IC50 for human MDA-MB-231 cells to IC50 for human SKBR3 cells
- Format: functional
quantity: Ratio IC50

| smiles.representation | quantity | test.value |
| --- | --- | --- |
| COc1ccc(OC)c(COc2cc(NC(=O)c3ccc(I)cc3)ccc2S(N)(=O)=O)c1 | Ratio IC50 | 3.1 |
| Cc1ccc(C)c(COc2cc(NC(=O)c3ccc(I)cc3)ccc2S(N)(=O)=O)c1 | Ratio IC50 | 2.2 |
| COc1ccc(OC)c(COc2cc(NC(=O)c3ccc(C(F)(F)F)cc3C(F)(F)F)ccc2S(N)(=O)=O)c1 | Ratio IC50 | 2.4 |
| COc1ccc(OC)c(COc2cc(NC(=O)c3ccc(C#N)cc3)ccc2S(N)(=O)=O)c1 | Ratio IC50 | 2.2 |
| CCOc1cccc(C(=O)Nc2ccc(S(N)(=O)=O)c(OCc3cc(OC)ccc3OC)c2)c1 | Ratio IC50 | 2.2 |
| COc1ccc(OC)c(COc2cc(NC(=O)c3cccc4ccccc34)ccc2S(N)(=O)=O)c1 | Ratio IC50 | 9.1 |
| CCc1ccc(C(=O)Nc2ccc(S(N)(=O)=O)c(OCc3cc(OC)ccc3OC)c2)cc1 | Ratio IC50 | 1.1 |
| COc1cccc(C(=O)Nc2ccc(S(N)(=O)=O)c(OCc3cc(OC)ccc3OC)c2)c1 | Ratio IC50 | 2 |
| COc1ccc(C(=O)Nc2ccc(S(N)(=O)=O)c(OCc3cc(OC)ccc3OC)c2)cc1 | Ratio IC50 | 6.1 |
